Target: recombinant human TREM2 protein (Homo sapiens, UniProt Q9NZC2)
Sequence (Q9NZC2 19-174 limits assumed): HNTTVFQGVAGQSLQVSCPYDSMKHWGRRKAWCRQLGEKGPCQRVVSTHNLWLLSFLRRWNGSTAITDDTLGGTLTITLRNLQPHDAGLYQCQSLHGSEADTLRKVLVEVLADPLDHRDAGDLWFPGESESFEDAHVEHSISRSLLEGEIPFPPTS
Assay: microscale thermophoresis
QUANTITY_KIND: Kd (nM)

Before answering, review these 2 worked examples.
Short answer for `c1ccc(Nc2nc(-c3c[nH]c4ccccc34)cs2)cc1` : Kd was 50800

Short answer for `c1ccc(Nc2nc(-c3c[nH]c4ccccc34)cs2)nc1` : Kd was 28900

[I] CNc1nc(-c2c[nH]c3ccccc23)cs1
[II] c1ccc(CCNc2nc(-c3c[nH]c4ccccc34)cs2)cc1
[III] c1ccc2c(-c3csc(NC4CC4)n3)c[nH]c2c1
Query block: Arrange items by their Kd values in increasing order. When ranking, write the labels in the order the request describes.
Result block: II, III, I
